Tested on: Toxoplasma gondii RH-2F tachyzoites
experiment.summary: microbe, parasite or virus in culture
experimental.parameters: 72 h, read-out: Parasite inhibition (%) mean, preliminary screen of compound library, mean
Structures can show the parent of a compound that is named as a salt.
experimental.readout: inhibition of growth at 5 µM (%)

- O=S(=O)(c1ccccc1)c1cnc2c(N3CCNCC3)cccc2c1: 0.6
- O=C1NC(=O)/C(=C\c2cccc(C(F)(F)F)c2)S1: 8.9
- Nc1nc(CC(=O)Nc2ccc(CCNC[C@H](O)c3ccccc3)cc2)cs1: 3.8
- CN1CCN(c2ccc([N+](=O)[O-])c3no[n+]([O-])c23)CC1: 0.2
- COc1ccc(NS(=O)(=O)c2sc3ccc(Cl)cc3c2C)cc1N1CCNCC1: -0.6
- NCC(=O)CCC(=O)O [5-Aminolevulinic acid hydrochloride]: 20.1
- COc1cc(OC)c(OC)cc1C=O: 10.2
- CC(S)C(=O)NCC(=O)O (stereo not drawn): 0.9
- O=C(Nc1cccnc1)N1CCC(Cc2cccc(Oc3ccc(C(F)(F)F)cn3)c2)CC1: 6.7
- CCS(=O)(=O)c1cccc(-c2cc(C(=O)NC3CCN(C)CC3)c(C)c3[nH]c4ncc(C)cc4c23)c1: 77.8
- CNC(=O)c1ccccc1Nc1nc(Nc2ccc(N3CCOCC3)cc2OC)ncc1Cl: 66.8
- CC(C)N(CC[C@H](c1ccccc1)c1cc(CO)ccc1O)C(C)C [5-hydroxymethyl tolterodine (PNU 200577)]: -18.8
- CCC[C@H](NC(=O)/C(C#N)=C/c1cccc(Br)n1)c1ccccc1: 1.7
- CCCCOc1cc(C(=O)NCCN(CC)CC)c2ccccc2n1 [Dibucaine (Cinchocaine) HCl]: 8.9
- CN1CCN(c2c(F)cc3c(=O)c(C(=O)O)cn4c3c2OCN4C)CC1: 8.7
- Cc1ccccc1C(=O)Nc1ccc(C(=O)N2CCCC(O)c3cc(Cl)ccc32)c(C)c1 (stereo not drawn): -4.3
- COc1cc2ncnc(Oc3cccc(NC(=O)Nc4cc(C(C)(C)C(F)(F)F)on4)c3)c2cc1OC: 0
- CC(C)n1cnc2c(NCCc3ccc(O)cc3)nc(-c3csc4ccccc34)nc21: 0.2

---

Test system: Toxoplasma gondii RH-2F tachyzoites
experiment.summary: microbe, parasite or virus in culture
experimental.parameters: 72 h, read-out: Parasite inhibition (%) mean, preliminary screen of compound library, mean
Counter-ions that a name gives are not always drawn.
experimental.readout: inhibition of growth at 5 µM (%)

- Cc1cnc(Nc2ccc(OCCN3CCCC3)cc2)nc1Nc1cccc(S(=O)(=O)NC(C)(C)C)c1 [TG101348 (SAR302503)]: 8.5
- CC[C@@H]1/C=C(\C)C[C@H](C)C[C@H](OC)[C@H]2O[C@@](O)(C(=O)C(=O)N3CCCC[C@H]3C(=O)O[C@H](/C(C)=C/[C@@H]3CC[C@H](Cl)[C@H](OC)C3)[C@H](C)[C@@H](O)CC1=O)[C@H](C)C[C@@H]2OC: -12.9
- N[C@@H]1CCCCN(c2c(F)cc3c(=O)c(C(=O)O)cn(C4CC4)c3c2Cl)C1 [Besifloxacin HCl (Besivance)]: 39.1
- Cc1nc(C#Cc2ccnc(Cl)c2)c(C)n1-c1ccc(OC(F)(F)F)cc1: 2.4
- O=C1Cc2cc(CCN3CCN(c4nsc5ccccc45)CC3)c(Cl)cc2N1 [Ziprasidone hydrochloride]: 33.7
- O=C(CCCCCCNC(=O)c1cnc(N(c2ccccc2)c2ccccc2)nc1)NO: 2.9

---

Below: a set of entries, each annotated with reported inhibition of growth at 5 µM.
Tested on: Toxoplasma gondii RH-2F tachyzoites
experiment.summary: microbe, parasite or virus in culture
experimental.parameters: 72 h, read-out: Parasite inhibition (%) mean, preliminary screen of compound library, mean
Counter-ions that a name gives are not always drawn.
experimental.readout: inhibition of growth at 5 µM (%)

- CC1(C)CC(=O)c2c(C(F)(F)F)nn(-c3ccc(C(N)=O)c(N[C@H]4CC[C@H](OC(=O)CN)CC4)c3)c2C1 [PF-04929113 (SNX-5422)]: 4.6
- Cc1ccc(Sc2ccccc2N2CCNCC2)c(C)c1 [Vortioxetine (Lu AA21004) hydrobromide]: 66.8
- O=C(NCC1CCOCC1)c1cnc(Nc2ccc(Cl)cc2Cl)nc1C(F)(F)F [GW842166X]: -12
- Cc1cnc(Nc2ccc(N3CCN(C)CC3)cc2)nc1Nc1cccc(S(=O)(=O)NC(C)(C)C)c1 [TG101209]: -21.3
- Cc1cn([C@@H]2C[C@@H](O)[C@H](CO)O2)c(=O)[nH]c1=O [Telbivudine (Sebivo, Tyzeka)]: 12.9
- CC(C)OC(=O)C(C(=O)OC(C)C)=C1SC=CS1 [Malotilate]: 0.5

---

Test system: Toxoplasma gondii RH-2F tachyzoites
experiment.summary: microbe, parasite or virus in culture
experimental.parameters: 72 h, read-out: Parasite inhibition (%) mean, preliminary screen of compound library, mean
Structures can show the parent of a compound that is named as a salt.
Form field: inhibition of growth at 5 µM (one value per entry).
experimental.readout: inhibition of growth at 5 µM (%)

- COc1ccc(-c2ccc3ncc4c(c3c2)n(-c2ccc(N3CCNCC3)c(C(F)(F)F)c2)c(=O)n4C)cn1: 6.1
- CC(C)N(CCNC(=O)CN1CCCC1=O)C(C)C: 24.1
- N#Cc1cc(CN2CCC(Nc3ncnc4sc(Cl)cc34)CC2)ccc1F: 40.5
- CC1=NN(c2ccc(C)c(C)c2)C(=O)/C1=N/Nc1cccc(-c2cccc(C(=O)O)c2)c1O [Eltrombopag (SB-497115-GR)]: 0.7
- CCOc1cc([C@@H](CS(C)(=O)=O)N2C(=O)c3cccc(NC(C)=O)c3C2=O)ccc1OC: -1.4
- Cc1cc(C)c2c(c1)[C@@H](N(Cc1cc(C(F)(F)F)cc(C(F)(F)F)c1)c1nnn(C)n1)CCCN2C[C@H]1CC[C@H](C(=O)O)CC1: 22.6
- Cc1ccc(-n2sc(=O)n(Cc3ccc(F)cc3)c2=O)cc1: 1.4
- O=C1c2ccccc2C(=O)C1c1ccccc1 [Phenindione (Rectadione)]: -1.7
- COc1cc2c(cc1OC)CN(CCc1ccc(NC(=O)c3cc(OC)c(OC)cc3NC(=O)c3cnc4ccccc4c3)cc1)CC2: 0.4
- CCCCCCOC(=O)/N=C(/N)c1ccc(NCc2nc3cc(C(=O)N(CCC(=O)OCC)c4ccccn4)ccc3n2C)cc1: 8.4
- COc1cc(F)c(C(C)C)cc1-c1ccc(C(F)(F)F)cc1CN1C(=O)O[C@H](c2cc(C(F)(F)F)cc(C(F)(F)F)c2)[C@H]1C: 22.1
- O=C(Nc1ccccc1)Nc1ccc(-c2ccc(C(=O)[C@@H]3CCC[C@@H]3C(=O)O)cc2)cc1: 2
- COc1cc(NC(=O)c2ccc(-c3ccc(Cl)cc3)o2)cc(OC)c1: 0.3
- CO/N=C(\C(=O)N[C@@H]1C(=O)N2C(C(=O)OCOC(=O)C(C)(C)C)=C(/C=C\c3scnc3C)CS[C@H]12)c1csc(N)n1: 0.2
- Cc1nc(NC(=O)N2CCC[C@H]2C(N)=O)sc1-c1csc(C(C)(C)C)n1: 0.9
- COc1cccc2cc(-c3nc([C@H]4CC[C@H](C(=O)O)CC4)n4ncnc(N)c34)[nH]c12: 31
- C[C@]12C=CC(=O)C=C1CC[C@@H]1[C@H]2C(=O)C[C@@]2(C)[C@H]1CC[C@@]2(O)C(=O)CO: 33.8
- CC(C)(C)c1nc(-c2cccc(NS(=O)(=O)c3c(F)cccc3F)c2F)c(-c2ccnc(N)n2)s1: 0.8
- O=C(O)Cc1cccc(OCCCN(Cc2cccc(C(F)(F)F)c2Cl)CC(c2ccccc2)c2ccccc2)c1 [GW3965 HCl]: -20.1
- Cc1ccc(-c2c(-c3nn(C)c4ncnc(N5CC[C@H](N6CCCCC6)C5)c34)cnn2C)cc1: -8.9
- Oc1ccc(OC2CCCCO2)cc1 (stereo not drawn): 33.4
- CC(C)[C@H](N)C(=O)OCCOCn1cnc2c(=O)[nH]c(N)nc21 [Valaciclovir HCl]: 0.1
- CCCSc1nc(N[C@@H]2C[C@H]2c2ccc(F)c(F)c2)c2nnn([C@@H]3C[C@H](OCCO)[C@@H](O)[C@H]3O)c2n1: 4.7
- CCCNC(C)C(=O)Nc1ccccc1C (stereo not drawn): -21.8

---

# inhibition of growth at 5 µM values compiled below
Test system: Toxoplasma gondii RH-2F tachyzoites
experiment.summary: microbe, parasite or virus in culture
experimental.parameters: 72 h, read-out: Parasite inhibition (%) mean, preliminary screen of compound library, mean
experimental.readout: inhibition of growth at 5 µM (%)

* CCC(=O)N1CCN(c2ccc(-n3c(=O)ccc4cnc5ccc(-c6cnc7ccccc7c6)cc5c43)cc2C(F)(F)F)CC1 [Torin 1] | 17.8
* CC(C)(O)CC(=O)NCCn1ccc2ncnc(Nc3ccc(Oc4cccc(C(F)(F)F)c4)c(Cl)c3)c21 [TAK-285] | -12.2
* CCC(C)(Oc1ccc(C2(c3ccc(OC(C)(CC)C(=O)O)cc3)CCCCC2)cc1)C(=O)O (stereo not shown) [Clinofibrate] | 0.1
* Cc1cccc(-c2nn3c(c2-c2ccnc4ccc(C(N)=O)cc24)CCC3)n1 [LY2157299] | 5.2

Data origin: paper PMC7216583
